# Target desc: GABAA receptor with the α1β2γ2 subunit composition (Homo sapiens, UniProt P14867+P18507+P47870)
# Sequence (P14867 28-456): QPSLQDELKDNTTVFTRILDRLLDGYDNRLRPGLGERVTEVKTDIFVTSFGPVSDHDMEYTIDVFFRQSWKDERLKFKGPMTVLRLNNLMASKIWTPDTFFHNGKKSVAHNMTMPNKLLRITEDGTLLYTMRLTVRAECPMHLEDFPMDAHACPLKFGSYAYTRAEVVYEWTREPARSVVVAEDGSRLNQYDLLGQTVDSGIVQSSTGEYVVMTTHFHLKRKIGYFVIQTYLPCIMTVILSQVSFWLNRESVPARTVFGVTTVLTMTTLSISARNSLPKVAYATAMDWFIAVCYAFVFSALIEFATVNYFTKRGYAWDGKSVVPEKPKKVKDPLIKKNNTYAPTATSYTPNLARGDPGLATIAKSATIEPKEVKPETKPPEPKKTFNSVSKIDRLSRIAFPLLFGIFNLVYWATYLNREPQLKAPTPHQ
# Sequence (P47870 25-512 limits assumed): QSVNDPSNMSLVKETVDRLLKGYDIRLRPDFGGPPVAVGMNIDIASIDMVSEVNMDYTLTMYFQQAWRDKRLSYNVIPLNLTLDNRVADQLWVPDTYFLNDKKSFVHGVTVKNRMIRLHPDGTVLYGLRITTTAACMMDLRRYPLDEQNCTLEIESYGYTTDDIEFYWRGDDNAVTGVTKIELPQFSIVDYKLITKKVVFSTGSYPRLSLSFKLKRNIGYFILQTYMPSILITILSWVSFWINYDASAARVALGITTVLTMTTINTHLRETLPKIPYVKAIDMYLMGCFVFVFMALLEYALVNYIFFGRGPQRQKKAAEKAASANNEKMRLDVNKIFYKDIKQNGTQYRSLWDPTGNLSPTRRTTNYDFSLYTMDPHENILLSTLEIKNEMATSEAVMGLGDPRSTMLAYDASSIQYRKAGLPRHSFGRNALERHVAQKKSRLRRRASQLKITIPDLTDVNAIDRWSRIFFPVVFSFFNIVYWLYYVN
# Sequence (P18507 40-475): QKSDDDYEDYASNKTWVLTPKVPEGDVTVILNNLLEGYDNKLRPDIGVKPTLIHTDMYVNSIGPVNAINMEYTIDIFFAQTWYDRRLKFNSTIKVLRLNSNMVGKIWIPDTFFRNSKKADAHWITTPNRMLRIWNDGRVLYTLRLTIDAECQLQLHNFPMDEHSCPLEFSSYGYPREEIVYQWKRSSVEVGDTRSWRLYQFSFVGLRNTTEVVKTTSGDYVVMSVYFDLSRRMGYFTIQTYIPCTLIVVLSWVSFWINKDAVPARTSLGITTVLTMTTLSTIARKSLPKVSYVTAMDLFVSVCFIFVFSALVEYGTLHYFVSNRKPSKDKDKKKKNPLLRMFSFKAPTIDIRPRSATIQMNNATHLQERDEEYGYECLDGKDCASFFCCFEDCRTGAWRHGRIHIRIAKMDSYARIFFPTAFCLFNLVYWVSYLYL
# Assay method text: FLIPR assay on CHO cells stably expressing GABAA receptors
# Format: cell-based
# Run conditions: 20 μM compound, in the presence of 2 μM GABA; 200 μM GABA = 100%

Smiles record: C=C/C(C)=C/C[C@]1(C)[C@H](C)C[C@H](O)[C@]23C(=C[C@H](OC(=O)C(=C)C)C[C@@H]12)[C@@H](OC(C)=O)O[C@H]3OC(C)=O
% activation at single concentration: no discernible activity
//
Smiles record: C=C/C(C)=C/C[C@]1(C)[C@H](C)C[C@H](O)[C@]23C(=C[C@@H](OC(C)=O)C[C@@H]12)[C@@H](OC)O[C@H]3OC(C)=O
% activation at single concentration: no discernible activity
//
Smiles record: C=C/C(C)=C/C[C@]1(C)[C@H](C)C[C@H](OC)[C@@]2(C=O)C(C=O)=C[C@@H](OC(C)=O)C[C@@H]12
% activation at single concentration: ~40%

====

# Target desc: GABAA receptor with the α1β2γ2 subunit composition (Homo sapiens, UniProt P14867+P18507+P47870)
# Assay method text: FLIPR assay on CHO cells stably expressing GABAA receptors
# Format: cell-based
# Run conditions: 20 μM compound, in the presence of 2 μM GABA; 200 μM GABA = 100%
Metric: % activation at single concentration

// worked examples, % activation at single concentration included
Smiles record: C=C/C(C)=C/C[C@]1(C)[C@H](C)C[C@H](O)[C@@]2(C=O)C(C=O)=C[C@@H](OC(C)=O)C[C@@H]12
% activation at single concentration: ~40%
--
Smiles record: C=C/C(C)=C/C[C@]1(C)[C@H](C)C[C@H](O)[C@]23C(=C[C@H](OC(=O)C(=C)C)C[C@@H]12)[C@@H](OC)O[C@H]3OC(C)=O
% activation at single concentration: no discernible activity
--
Smiles record: C=C/C(C)=C/C[C@]1(C)[C@H](C)C[C@H](OC)[C@]23C(=C[C@H](OC(=O)CC)C[C@@H]12)[C@@H](OC(C)=O)O[C@H]3OC(C)=O
% activation at single concentration: no discernible activity
--
Smiles record: C=C/C(C)=C/C[C@]1(C)[C@H](C)C[C@H](O)[C@]23C(=C[C@@H](OC(C)=O)C[C@@H]12)[C@@H](OC(C)=O)O[C@H]3OC(C)=O
% activation at single concentration: significantly enhanced

Exercise: // % activation at single concentration lookup, key: C=C/C(C)=C/C[C@]1(C)[C@H](C)C[C@H](OC)[C@]23C(=C[C@@H](OC(C)=O)C[C@@H]12)[C@@H](OC(C)=O)O[C@H]3OC(C)=O
Key: significantly enhanced

====

# Target desc: GABAA receptor with the α1β2γ2 subunit composition (Homo sapiens, UniProt P14867+P18507+P47870)
# Assay method text: FLIPR assay on CHO cells stably expressing GABAA receptors
# Run conditions: in the presence of 2 μM GABA; CHO cells α1β2γ2; read-out: EC50, positive allosteric modulation of the GABA signal
Metric: pEC50
When answering, recall that pEC50 equals minus log10 of the concentration in mol/L, and write that number alone.

Exercise: Give the measured pEC50 of C=C/C(C)=C/CC1(C)C(C)CC(OC(C)=O)C23C(=CC(OC(C)=O)CC12)C(OC(C)=O)OC3OC(C)=O [Compound 7, (2S,6S,18S,19S)-Tetraacetoxyzuelanin] .
Key: 5.34
